Values from the nanobody polyreactivity screen of Harvey et al. (2022)

Experiment: yeast display, Sf9 membrane polyspecificity reagent, FACS + sequencing; frameworks hold sequencing errors
MEASURED METRIC: polyreactivity (PSR sort gate)

{"columns": ["SEQUENCE ENTRY", "REPORTED VALUE"],
 "data": [
  ["QVQLVESGGGLVQAGGSLRLSSAASGFILRTNAMGWYRQAPGKERELVAAISVSGGRTYYADSVKGRFTISRDNAKNTVYLQMNSLKPEDTAVDYCAARDSTKLLSGYTHYYWGQGTQVTVSS", "high polyreactivity"],
  ["QVQLVESGGGLVQAGGSLRLSCAASGFIFGYYAMGWYRKAPGKERELVAAITSGDGSTYADSVKGRFTISRDNEKNTVYLQMNSLKPEDTAVYYCAAVFRYYTYSGAVRYYYWGQGTQVTVSS", "high polyreactivity"]
]}
